target: hKCa2.3 (Homo sapiens); construct: expressed in transfected cells; host or cells: COS7; assay: Inside-out single-channel experiments on hKCa2.3; assay type: biochemical; conditions: inside-out single channel experiments; read-out: EC50 of hKCa2.3 inhibition
Value Type: EC50 (nM)
All answers are understood in nM, so give the number only.

[in] Given the entry O=C(OCc1cc(COC(=O)c2ccc(O)c(F)c2)cc(COC(=O)c2ccc(O)c(F)c2)c1)c1ccc(O)c(F)c1 [Compound 13b] , report its measured EC50.
[out] 0.241

----------
target: hKv1.2 (Homo sapiens); experiment: Whole-cell patch-clamp of cloned hKv1.2; settings: read-out: EC50 of hKv1.2 block
Sequence (P16389 whole entry): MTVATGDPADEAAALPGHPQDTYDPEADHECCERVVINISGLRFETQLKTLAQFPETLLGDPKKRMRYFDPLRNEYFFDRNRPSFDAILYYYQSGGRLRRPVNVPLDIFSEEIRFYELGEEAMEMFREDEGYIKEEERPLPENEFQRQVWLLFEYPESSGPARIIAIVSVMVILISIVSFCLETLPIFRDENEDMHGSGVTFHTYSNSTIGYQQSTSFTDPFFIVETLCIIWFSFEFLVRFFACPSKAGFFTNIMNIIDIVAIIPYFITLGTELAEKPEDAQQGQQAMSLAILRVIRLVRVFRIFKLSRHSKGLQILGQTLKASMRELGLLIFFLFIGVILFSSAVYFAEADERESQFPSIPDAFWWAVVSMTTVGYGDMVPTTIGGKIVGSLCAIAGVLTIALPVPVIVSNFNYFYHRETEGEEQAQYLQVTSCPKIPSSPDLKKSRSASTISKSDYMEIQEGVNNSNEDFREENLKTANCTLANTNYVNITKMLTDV
Value Type: EC50 (nM)
All answers are understood in nM, so give the number only.

[in] Value wanted: EC50 (hKv1.2 (Homo sapiens)) of entry O=C(OCc1cc(COC(=O)c2ccc(O)c(F)c2)cc(COC(=O)c2ccc(O)c(F)c2)c1)c1ccc(O)c(F)c1 [Compound 13b]
[out] 550

----------
molecular target: KCa3.1 channels in 3T3 fibroblasts (Mus musculus, UniProt O89109); construct: KCa3.1 channels in 3T3 fibroblasts; endogenous in cells; host or cells: 3T3-L1 mouse embryonic fibroblasts; experiment: Whole-cell patch-clamp of KCa3.1 currents in 3T3 fibroblasts; assay type: cell-based; conditions: KCa3.1 whole-cell current, 3T3 fibroblasts, 1 µM free Ca2+ in pipette; compound 10 µM; mean ± SEM, n ≥3; read-out: % of control at 10 µM
Value Type: remaining activity at 10 µM (%)
All answers are understood in %, so give the number only.

[in] Value wanted: remaining activity at 10 µM (KCa3.1 channels in 3T3 fibroblasts (Mus musculus, UniProt O89109)) of entry O=C(O)c1cc(O)c(O)c(O)c1 [Gallic acid, 3,4,5-trihydroxybenzoic acid]
[out] 101

[in] How about this compound: COc1cc(/C=C/C(=O)O)ccc1O
[out] 87

[in] How about this compound: Cc1cccc(Nc2ccccc2C(=O)O)c1C [Mefenamic Acid, reference compound]
[out] 136

[in] How about this compound: COc1cc(C(=O)O)ccc1O [Vanillic Acid, 4-hydroxy-3-methoxybenzoic acid]
[out] 78

[in] How about this compound: Cc1ccc(=O)n(-c2ccccc2)c1 [Pirfenidone, methyl-1-phenylpyridin-2(1H)-one, reference compound]
[out] 98

----------
Could you please report measured activity at 10 µM for the items listed next?
test system: hERG; construct: expressed in transfected cells; gift of Craig January, University of Wisconsin; experiment: Whole-cell patch-clamp of hERG tail currents in HEK293 cells; assay type: cell-based, human; details: human, HEK293 cells expressing hERG, pH 7.4; hERG; compound 10 µM; read-out: % of control at 10 µM
All answers are understood in %, so give the number only.

[in] Given the entry O=C(O)c1ccccc1Nc1cccc(C(F)(F)F)c1 [Flufenamic Acid, reference compound] , report its measured activity at 10 µM.
[out] 116

[in] How about this molecule: O=C(O)/C=C/c1ccc(O)c(O)c1 [Caffeic Acid]
[out] 97

----------
target: KCa3.1 channels in 3T3 fibroblasts (Mus musculus, UniProt O89109); construct: KCa3.1 channels in 3T3 fibroblasts; endogenous in cells; host or cells: 3T3-L1 mouse embryonic fibroblasts; experiment: Whole-cell patch-clamp of KCa3.1 currents in 3T3 fibroblasts; type: cell-based; conditions: KCa3.1 whole-cell current, 3T3 fibroblasts, 1 µM free Ca2+ in pipette; compound 1 µM; mean ± SEM, n ≥3; read-out: % of control at 1 µM
Could you please report measured remaining activity at 1 µM for the items listed next?

[in] Value wanted: remaining activity at 1 µM (KCa3.1 channels in 3T3 fibroblasts (Mus musculus, UniProt O89109)) of entry O=C(OCc1cc(COC(=O)c2ccc(O)c(F)c2)cc(COC(=O)c2ccc(O)c(F)c2)c1)c1ccc(O)c(F)c1 [Compound 13b]
[out] 4%

[in] How about this molecule: OCCc1ccc(O)c(O)c1 [Hydroxytyrosol]
[out] 117%

[in] How about this molecule: Cc1cccc(Nc2ccccc2C(=O)O)c1C [Mefenamic Acid, reference compound]
[out] 117%
